tested on: A549; test: Growth inhibition of human A549 cells after 48 hrs; assay type: functional, cell-based; settings: A549, 24 h, in the assay text read “after 24 hrs” for “after 48 hrs”
measure-name: IC50 (µM)

Below, each entry is followed by its recorded IC50 result.
{"chemical-smiles": "CC(C)(C)c1ccc(Cn2nc(-c3ccccc3)cc2C(=O)NN)cc1", "unit-of-measurement": "µM", "result-value": 66.2}
{"chemical-smiles": "CC(C)(C)c1ccc(Cn2nc(-c3ccc(Cl)cc3)cc2C(=O)NN)cc1", "unit-of-measurement": "µM", "result-value": 68.3}
{"chemical-smiles": "NNC(=O)c1cc(-c2ccccc2)nn1Cc1ccccc1", "unit-of-measurement": "µM", "result-value": 440}
{"chemical-smiles": "COc1ccc(-c2cc(C(=O)NN)n(Cc3ccccc3)n2)cc1", "unit-of-measurement": "µM", "result-value": 550}

P = NNC(=O)c1cc(-c2ccc(Cl)cc2)nn1Cc1ccc(Cl)nc1
Q = COc1ccc(-c2cc(C(=O)NN)n(Cc3ccc(Cl)nc3)n2)cc1
Between P and Q , which one shows the larger IC50 value? Give the label under which the chosen entry appears.
Q
(Q: 240 µM, P: 121 µM)

a = NNC(=O)c1cc(-c2ccccc2)nn1Cc1ccc(Cl)nc1
b = COc1ccc(-c2cc(C(=O)NN)n(Cc3ccc(C(C)(C)C)cc3)n2)cc1
Which entry shows the lesser value of IC50 here, a or b ? Give the label under which the chosen entry appears.
b

Every entry's value here was drawn from ChEMBL document CHEMBL1137467.
